# test-system: human PDE10A2 (Homo sapiens, UniProt Q9Y233)
# Construct: cytosolic supernatant of the sonicated lysate used as enzyme
# Sequence (Q9Y233 267-1055): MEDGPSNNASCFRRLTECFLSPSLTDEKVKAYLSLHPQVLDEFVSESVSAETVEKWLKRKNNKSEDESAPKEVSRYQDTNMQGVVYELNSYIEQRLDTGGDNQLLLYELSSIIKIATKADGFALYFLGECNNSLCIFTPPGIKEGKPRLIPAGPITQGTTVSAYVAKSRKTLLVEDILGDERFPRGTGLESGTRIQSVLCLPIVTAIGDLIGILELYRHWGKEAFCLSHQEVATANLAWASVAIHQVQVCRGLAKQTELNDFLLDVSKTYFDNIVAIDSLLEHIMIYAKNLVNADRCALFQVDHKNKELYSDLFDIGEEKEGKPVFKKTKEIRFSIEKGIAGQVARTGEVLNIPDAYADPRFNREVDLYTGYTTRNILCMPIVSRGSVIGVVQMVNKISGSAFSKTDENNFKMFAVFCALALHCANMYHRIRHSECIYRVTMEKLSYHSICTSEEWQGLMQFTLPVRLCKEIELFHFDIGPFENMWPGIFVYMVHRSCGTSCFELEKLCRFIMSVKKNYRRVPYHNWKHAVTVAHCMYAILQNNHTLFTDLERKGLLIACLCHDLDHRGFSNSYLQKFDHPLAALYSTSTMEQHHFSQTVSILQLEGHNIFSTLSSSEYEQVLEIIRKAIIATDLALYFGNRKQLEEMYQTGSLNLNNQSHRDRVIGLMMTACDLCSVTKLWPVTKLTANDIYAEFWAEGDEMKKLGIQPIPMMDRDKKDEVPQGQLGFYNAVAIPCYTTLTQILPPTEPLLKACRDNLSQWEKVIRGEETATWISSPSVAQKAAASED
# test-summary: PDE10 inhibitory activity, IMAP fluorescence polarization (FP) assay
# condition-label: apparent inhibition constant, FAM-labeled cAMP 50 nM, room temperature, read-out: PDE10A Ki
pKi: −log10 of the molar value.
Each entry gets F if its pKi stays under 9, and T if its pKi is 9 or above.

Hello, I need to know if COc1ccc(-n2c(CCN3Cc4cccc(OC(C)C)c4C3=O)nc3ccccc3c2=O)cc1 (single isomer, unassigned) [Compound B-6] has measured pKi not below 9. Thanks!
F

Hello, I need to know if COc1ccc(-n2c(CCN3Cc4c(Br)cccc4C3=O)nc3ccccc3c2=O)cc1 [Compound A-3] has measured pKi not below 9. Thanks!
F

Hello, I need to know if COc1ccc(-n2c(CCN3Cc4c(cccc4-c4ncco4)C3=O)nc3ccccc3c2=O)cc1 [Compound A-4] has measured pKi not below 9. Thanks!
T

Hello, I need to know if COc1ccc(-c2cc3ccccc3nc2CCN2Cc3c(cccc3-c3ncco3)C2=O)cc1 [Compound C-5] has measured pKi not below 9. Thanks!
T

Hello, I need to know if O=C1c2cccc(-c3cscn3)c2CN1CCc1nc2ccccc2cc1C1CC1 [Compound 1-27] has measured pKi not below 9. Thanks!
T

Hello, I need to know if O=C1c2cccc(-c3ncco3)c2CN1CCc1ccc2c(n1)CCCC2O (centres unmarked) [Compound 1-29] has measured pKi not below 9. Thanks!
F

Hello, I need to know if O=C1c2cccc(-c3nccs3)c2CN1CCc1csc(-c2ccn[nH]2)n1 [Compound 1-40] has measured pKi not below 9. Thanks!
F

Hello, I need to know if O=C1c2cccc(-c3cscn3)c2CN1CCc1csc(-c2ccn[nH]2)n1 [Compound K-4] has measured pKi not below 9. Thanks!
T
